Attribute: MIC
Tested on: M. suipneumoniae Str. 11
method-notes: MIC against mycoplasma in vitro
Type: cell-based
conditions-used: Mesomycoplasma hyopneumoniae, STR.11, 144 h
Give the number; µg/mL is assumed, so skip it.

molecule	unit-text	val
CSc1ccc(-c2cnc(/C=C(\C)C[C@@H]3OC[C@H](C[C@@H]4O[C@H]4[C@@H](C)[C@H](C)O)[C@@H](O)[C@H]3O)o2)cc1 [Example 9]	µg/mL	0.5
C/C(=C\c1ncc(-c2cccc([N+](=O)[O-])c2)o1)C[C@@H]1OC[C@H](C[C@@H]2O[C@H]2[C@@H](C)[C@H](C)O)[C@@H](O)[C@H]1O [Example 6]	µg/mL	0.05

// query What value of MIC has been recorded for this entry: C/C(=C\c1ncc(-c2ccccc2[N+](=O)[O-])o1)C[C@@H]1OC[C@H](C[C@@H]2O[C@H]2[C@@H](C)[C@H](C)O)[C@@H](O)[C@H]1O [Example 26]
// result 2.5

// query What would you report for C/C(=C\c1ncc(-c2ccc(S(C)(=O)=O)cc2)o1)C[C@@H]1OC[C@H](C[C@@H]2O[C@H]2[C@@H](C)[C@H](C)O)[C@@H](O)[C@H]1O [Example 10] ?
// result 0.025

// query Same lookup for C/C(=C\c1ncc(CCCCCCCCO)o1)C[C@@H]1OC[C@H](C[C@@H]2O[C@H]2[C@@H](C)[C@H](C)O)[C@@H](O)[C@H]1O [Example 19] , please.
// result 1

// query Another molecule to look at: C/C(=C\c1ncc(-c2ccc(Br)s2)o1)C[C@@H]1OC[C@H](C[C@@H]2O[C@H]2[C@@H](C)[C@H](C)O)[C@@H](O)[C@H]1O [Example 28]
// result 0.25
